The measurements presented in this section are drawn from paper PMC9619376.

# ASSAY_TARGET: GFP 10M2/11M4 EBOV VP35_75-185 (EBOV VP35 oligomerization domain) (Ebola virus - Mayinga, Zaire, 1976)
# Sequence (Q05127 75-185 limits assumed): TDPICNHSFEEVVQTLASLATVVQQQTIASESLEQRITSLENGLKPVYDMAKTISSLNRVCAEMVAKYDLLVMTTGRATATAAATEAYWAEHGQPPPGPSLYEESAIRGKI
# ASSAY_PROTOCOL: biochemical
TEST_READOUT: IC50 (µM)
Your answer should be a plain number; it is taken to be in µM.

| COMPOUND | TEST_READOUT | RESULT_UNIT | OBS_VALUE |
| --- | --- | --- | --- |
| O=c1c(O)c(-c2cc(O)c(O)c(O)c2)oc2cc(O)cc(O)c12 [Myricetin] | IC50 | µM | 64.4 |

Shift focus to the following entry.
Problem: Name the recorded IC50 for Brc1c(Br)c(Br)c2[nH]nnc2c1Br [TBBT, 4,5,6,7-Tetrabromobenzotriazole] .
Solution: 32.5
